The measurements presented in this section are drawn from ChEMBL document CHEMBL5214978.

tested on: Panel NCI-60 (60 carcinoma cell lines); assay: Anticancer activity against human Panel NCI-60 (60 carcinoma cell lines) line assessed as cell growth inhibition measured after 48 hrs by SRB assay; format: functional
Each record here notes measured GI50.

structure_string=COC(=O)C[C@H]1NC(=O)c2cc(Oc3cc(C)cc(C)c3)c(NC(=O)c3cc(OC)c(OC)c(OC)c3)cc2NC1=O result="> 50 µM"
structure_string=COC(=O)C[C@@H]1NC(=O)c2cc(Oc3cc(C)cc(C)c3)c(NCc3cc(OC)c(OC)c(OC)c3)cc2NC1=O result="> 50 µM"

Let me know recorded GI50 for `COC(=O)C[C@@H]1NC(=O)c2cc(-c3cc(C)cc(C)c3)c(NC(=O)c3cc(OC)c(OC)c(OC)c3)cc2NC1=O` , thanks.
> 50 µM

====

Examples of compounds with documented GI50 follow.
test system: LOX IMVI; test: Anticancer activity against human LOX IMVI cells assessed as cell growth inhibition measured after 48 hrs by SRB assay; format: functional

Example cases with answers are listed next.
compound=COC(=O)C[C@@H]1NC(=O)c2cc(OCCCc3cc(C)cc(C)c3)c(NC(=O)c3cc(OC)c(OC)c(OC)c3)cc2NC1=O measure_name=GI50 result="> 50 µM"
compound=CCN(CC)C(=O)C[C@@H]1NC(=O)c2cc(Oc3cc(C)cc(C)c3)c(NC(=O)c3cc(OC)c(OC)c(OC)c3Br)cc2NC1=O measure_name=GI50 result="< 0.005 µM"
compound=COC(=O)C[C@@H]1NC(=O)c2cc(Oc3ccc(C(F)(F)F)cc3)c(NC(=O)c3cc(OC)c(OC)c(OC)c3)cc2NC1=O measure_name=GI50 result="> 50 µM"

Identify GI50 associated with the compound `CCN(CC)C(=O)C[C@@H]1NC(=O)c2cc(Oc3cc(C)cc(C)c3)c(NC(=O)c3cc(OC)c(OC)c(OC)c3Cl)cc2NC1=O`
< 0.005 µM

Look up GI50 of `COC(=O)C[C@@H]1NC(=O)c2cc(C#Cc3cc(C)cc(C)c3)c(NC(=O)c3cc(OC)c(OC)c(OC)c3)cc2NC1=O` and report it.
> 50 µM

Hello, please tell me recorded GI50 for this one: CCOC(=O)C1NC(=O)c2cc(Oc3cc(C)cc(C)c3)c(NC(=O)c3cc(OC)c(OC)c(OC)c3)cc2NC1=O (configuration not stated)
> 50 µM

Identify measured GI50 associated with `COC(=O)C[C@@H]1NC(=O)c2cc(Oc3ccccc3)c(NC(=O)c3cc(OC)c(OC)c(OC)c3)cc2NC1=O`
> 50 µM

====

tested on: HCT-116; test: Anticancer activity against human HCT-116 cells assessed as cell growth inhibition measured after 48 hrs by SRB assay; type: functional
measure name: log10 GI50 (log10 of the value in nM)
// do not treat as linear: log10 of GI50, unit nM

structure_string=COC(=O)C[C@@H]1NC(=O)c2cc(Oc3cc(C)cc(F)c3)c(NC(=O)c3cc(OC)c(OC)c(OC)c3)cc2NC1=O assay_system=HCT-116 numeric_readout=2.20
structure_string=COC(=O)C[C@@H]1NC(=O)c2cc(Oc3cc(C)ccc3C)c(NC(=O)c3cc(OC)c(OC)c(OC)c3)cc2NC1=O assay_system=HCT-116 numeric_readout=3.13
structure_string=COC(=O)C[C@@H]1NC(=O)c2cc(Oc3cccc(N(C)C)c3)c(NC(=O)c3cc(OC)c(OC)c(OC)c3)cc2NC1=O assay_system=HCT-116 numeric_readout=3.72
structure_string=CCN(CC)C(=O)C[C@@H]1NC(=O)c2cc(Oc3cc(C)c(F)c(C)c3)c(NC(=O)c3cc(OC)c(OC)c(OC)c3Cl)cc2NC1=O assay_system=HCT-116 numeric_readout=1.23
structure_string=COc1cc(C(=O)Nc2cc3c(cc2Oc2cc(C)cc(C)c2)C(=O)N[C@@H](Cc2nnc(C)o2)C(=O)N3)cc(OC)c1OC assay_system=HCT-116 numeric_readout=3.10

Determine from records and report log10 GI50 for `COC(=O)C[C@@H]1NC(=O)c2cc(OCCc3cc(C)cc(C)c3)c(NC(=O)c3cc(OC)c(OC)c(OC)c3)cc2NC1=O`
3.60

Determine from records and report log10 GI50 for `CCN(CC)C(=O)C[C@H]1C(=O)Nc2cc(NC(=O)c3cc(OC)c(OC)c(OC)c3)c(Oc3cc(C)cc(C)c3)cc2C(=O)N1C`
1.32

Using known records, supply log10 GI50 for `CCc1noc(C[C@@H]2NC(=O)c3cc(Oc4cc(C)cc(C)c4)c(NC(=O)c4cc(OC)c(OC)c(OC)c4)cc3NC2=O)n1`
2.41

Give the value of log10 GI50 reported for the following: `CCN(CC)C(=O)C[C@@H]1NC(=O)c2cc(Oc3cc(C)cc(C)c3)c(N(C)C(=O)c3cc(OC)c(OC)c(OC)c3)cc2NC1=O`
4.70

Give recorded log10 GI50. `COc1cc(C(=O)Nc2cc3c(cc2Oc2cc(C)cc(C)c2)C(=O)N[C@@H](CC(=O)N(C)C)C(=O)N3)cc(OC)c1OC`
1.48

Please look at this compound and report its log10 GI50: `CCN(CC)C(=O)C[C@@H]1NC(=O)c2cc(Oc3cc(C)cc(C)c3)c(NC(=O)c3c(F)c(OC)c(OC)c(OC)c3Cl)cc2NC1=O`
1.23
